# System: T1, mucin subtype 5AC (human, UniProt P98088 28-5654, limits assumed)
# T1 construct: Not a purified recombinant protein; also called MUC5AC; crude extract antigen solution
# Method: ELISA, plate coated with crude extract antigen solution of SW1990 xenograft tumor, HRP anti-human IgG
# Experimental: Various antibodies were added to a 96 well plate coated with various antigens, and the plate was left standing for 1 hr at room temperature. The plate was washed, a blocking solution was added, and the mixture was left standing for 30 min at room temperature. […] The plate was washed, a color development reagent (Bethyl Laboratories, Inc.) was added, and the degree of color development was measured by a microplate reader (VersaMax, Molecular Devices, LLC.). […]
Measurement Kind: in vitro binding activity ratio to antibody 1 (fold vs antibody 1)

[[record]]
binder = "antibody 3 (antibody, V domains shown, Humanized antibody of the invention; also called H01L03) VH: EVQLLESGGGLVQPGGSLRLSCAASGFTFSNYGMSWVRQAPGKGLEWVSTISNSGRYTYFPDSVKGRFTISRDNSKNTLYLQMNSLRAEDTALYYCTRHLDYANYDAMDYWGQGTLVTVSS VL: DIQMTQSPSSLSASVGDRVTITCRASKSVTTSDFSYMHWYQQKPGKSPKLLIYLASNLESGVPSRFSGSGSGTDFSLTISSLQPEDFATYYCQHSREFPWTFGGGTKVEIK"
value_observed = 0.99

[[record]]
binder = "antibody 7 (antibody, V domains shown, Humanized antibody of the invention; also called H02L03) VH: LVQLVESGGGVVRPGGSLRLSCAASGFTFSNYGMSWIRQAPGKGLEWVSTISNSGRYTYFPDSVKGRFTISRDNAKNSLYLQMNSLRAEDTALYYCTRHLDYANYDAMDYWGQGTLVTVSS VL: DIQMTQSPSSLSASVGDRVTITCRASKSVTTSDFSYMHWYQQKPGKSPKLLIYLASNLESGVPSRFSGSGSGTDFSLTISSLQPEDFATYYCQHSREFPWTFGGGTKVEIK"
value_observed = 0.65

[[record]]
binder = "antibody 4 (antibody, V domains shown, Humanized antibody of the invention; also called H01L04) VH: EVQLLESGGGLVQPGGSLRLSCAASGFTFSNYGMSWVRQAPGKGLEWVSTISNSGRYTYFPDSVKGRFTISRDNSKNTLYLQMNSLRAEDTALYYCTRHLDYANYDAMDYWGQGTLVTVSS VL: DIVMTQSPDSLAVSLGERATINCKASKSVTTSDFSYLHWYQQKPGQPPKLLIYLASNLESGVPDRFSGSGSGTDFTLTISSLQAEDVAVYYCQHSREFPWTFGGGTKLEIK"
value_observed = 0.99

[[record]]
binder = "antibody 5 (antibody, V domains shown, Humanized antibody of the invention; also called H02L01) VH: LVQLVESGGGVVRPGGSLRLSCAASGFTFSNYGMSWIRQAPGKGLEWVSTISNSGRYTYFPDSVKGRFTISRDNAKNSLYLQMNSLRAEDTALYYCTRHLDYANYDAMDYWGQGTLVTVSS VL: DIVMTQSPSSLSASVGDRVTITCRASKSVTTSDFSYMHWYQQKPGKAPKLLIYLASNLESGVPSRFSGSGSGTDFTLTISSLQPEDFATYYCQHSREFPWTFGGGTKVEIK"
value_observed = 0.6

[[record]]
binder = "antibody 2 (antibody, V domains shown, Humanized antibody of the invention; also called H01L02) VH: EVQLLESGGGLVQPGGSLRLSCAASGFTFSNYGMSWVRQAPGKGLEWVSTISNSGRYTYFPDSVKGRFTISRDNSKNTLYLQMNSLRAEDTALYYCTRHLDYANYDAMDYWGQGTLVTVSS VL: DVVMTQSPSTLSASVGDRVTITCRASKSVTTSDFSYMHWYQQKPGQAPKLLIYLASNLESGVPSRFSGSGSGTDFTLTISSLQPEDFATYYCQHSREFPWTFGQGTKLEIK"
value_observed = 1.03

[[record]]
binder = "antibody 8 (antibody, V domains shown, Humanized antibody of the invention; also called H02L04) VH: LVQLVESGGGVVRPGGSLRLSCAASGFTFSNYGMSWIRQAPGKGLEWVSTISNSGRYTYFPDSVKGRFTISRDNAKNSLYLQMNSLRAEDTALYYCTRHLDYANYDAMDYWGQGTLVTVSS VL: DIVMTQSPDSLAVSLGERATINCKASKSVTTSDFSYLHWYQQKPGQPPKLLIYLASNLESGVPDRFSGSGSGTDFTLTISSLQAEDVAVYYCQHSREFPWTFGGGTKLEIK"
value_observed = 0.72

